assay: Pharmacokinetic profile and brain distribution after single oral and intravenous dose; assay type: in vivo, male C57 BL/6 mice; details: male, mouse, plasma; oral 4.5 mg/kg vs i.v. 1 mg/kg, C57BL/6 mice
Attribute measured: bioavailability

Item: CC(O)c1ccc(CCOc2ccc(CC3SC(=O)NC3=O)cc2)nc1 (racemic) [compound (1)] | bioavailability: 85%

====

biological target: Human recombinant monoamine oxidase MAO-B (Homo sapiens); assay: MAO-B inhibition, kynuramine fluorescence assay
Sequence (P27338 whole entry): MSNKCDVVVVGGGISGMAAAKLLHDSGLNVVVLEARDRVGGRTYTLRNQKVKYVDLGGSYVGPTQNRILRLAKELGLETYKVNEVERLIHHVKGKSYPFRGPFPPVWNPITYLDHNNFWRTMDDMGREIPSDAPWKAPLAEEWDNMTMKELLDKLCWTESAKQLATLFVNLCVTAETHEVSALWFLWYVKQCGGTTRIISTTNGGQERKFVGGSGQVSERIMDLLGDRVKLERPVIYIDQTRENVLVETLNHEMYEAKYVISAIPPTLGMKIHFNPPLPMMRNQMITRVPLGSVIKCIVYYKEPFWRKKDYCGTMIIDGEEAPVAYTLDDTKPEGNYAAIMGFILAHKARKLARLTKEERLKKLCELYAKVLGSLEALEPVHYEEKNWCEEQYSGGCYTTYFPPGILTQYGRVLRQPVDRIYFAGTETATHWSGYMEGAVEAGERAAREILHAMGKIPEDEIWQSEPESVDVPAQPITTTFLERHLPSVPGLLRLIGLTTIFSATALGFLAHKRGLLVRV
Attribute measured: IC50
Your reply should be a number followed by the unit it is expressed in.

IC50 reported for this molecule CC(O)c1ccc(CCOc2ccc(CC3SC(=O)NC3=O)cc2)nc1 (racemic) : 70.5 nM
